Cited source: ChEMBL document CHEMBL3046473

Catalogue of LD50 values
System: Musca domestica
EXPERIMENT SUMMARY: Insecticidal activity against 3-day old Musca domestica (house fly) administered topically measured after 24 hr
Type: functional
Entry rule: numbers only, all in µg.

COMPOUND	LD50 [µg]
COCC1COc2cc(OC)c([C@H]3OC[C@]4(O)[C@@H](Oc5c(OC)cccc5OC)OC[C@H]34)cc2O1 (mixture of isomers)	1
COc1cc2c(cc1[C@H]1OC[C@]3(O)[C@@H](Oc4c(OC)cccc4OC)OC[C@H]13)OCC(c1ccc3c(c1)OCO3)O2 (mixture of isomers)	1
COc1cc2c(cc1[C@H]1OC[C@]3(O)[C@@H](Oc4c(OC)cccc4OC)OC[C@H]13)OC(CCl)CO2 (mixture of isomers)	5
COc1cc2c(cc1[C@H]1OC[C@]3(O)[C@@H](Oc4c(OC)cccc4OC)OC[C@H]13)OC(COC(C)(C)C)CO2 (mixture of isomers)	1

[in] Entry COC[C@H]1Oc2cc([C@H]3OC[C@]4(O)[C@@H](Oc5c(OC)cc6c(c5OC)OCO6)OC[C@H]34)c(OC)cc2O[C@@H]1c1ccc2c(c1)OCO2 [(+)-HAEDOXAN A] , system Musca domestica: what LD50 was measured?
[out] 0.00025
